Tested on: HepG2 cells
Experiment: Cytotoxicity, MTS cell viability assay, HepG2
Format: cell-based, human
Condition Info: 24 h, read-out: LC50 (cell viability, MTS)
Measurement Type: CC50 (µM)
Numbers only here, please. The scale is µM.

Param item = O=S(=O)(c1ccccc1)n1ccc2c(N3CCN(CCCCCCNc4c5c(nc6ccccc46)CCCC5)CC3)cccc21 [Compound 3] ; retrieve measured CC50.
6.4

====

Hi there, I'd appreciate the recorded BACE1 percentage of inhibition for every entry that follows.
Experimental System: human BACE1 (Homo sapiens, UniProt P56817)
Construct: purchased Panvera, Madison, WI (BACE1 FRET Assay Kit); host or cells: baculovirus-expressed
Sequence (P56817 46-501): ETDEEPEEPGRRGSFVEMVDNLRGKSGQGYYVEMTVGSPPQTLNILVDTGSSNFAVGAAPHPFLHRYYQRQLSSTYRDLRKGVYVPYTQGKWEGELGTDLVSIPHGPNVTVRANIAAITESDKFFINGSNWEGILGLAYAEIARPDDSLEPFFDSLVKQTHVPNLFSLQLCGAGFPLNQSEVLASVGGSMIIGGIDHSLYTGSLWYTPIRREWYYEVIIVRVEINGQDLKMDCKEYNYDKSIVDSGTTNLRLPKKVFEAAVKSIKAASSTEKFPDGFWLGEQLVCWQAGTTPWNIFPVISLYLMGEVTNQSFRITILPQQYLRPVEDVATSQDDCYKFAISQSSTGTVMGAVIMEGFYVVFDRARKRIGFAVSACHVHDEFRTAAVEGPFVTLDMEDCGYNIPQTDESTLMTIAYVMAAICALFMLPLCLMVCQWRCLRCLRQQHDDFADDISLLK
Experiment: In vitro inhibition of human BACE1, FRET assay
Format: biochemical
Condition Info: screening concentration 50 µM
Give the quantity in %, number only.

Any idea what BACE1 percentage of inhibition was measured for `c1ccc(Cn2ccc3c(N4CCN(CCCCCCNc5c6c(nc7ccccc57)CCCC6)CC4)cccc32)cc1` ?
62

And what about the compound `Cc1c(OCc2ccccc2)cccc1N1CCN(CCCCNCc2ccccc2)CC1` ?
42.8

Also check `Cc1c(OCc2ccccc2)cccc1N1CCN(CCCCCCCCNc2c3c(nc4ccccc24)CCCC3)CC1`
34

Would you mind doing `Cc1c(OCc2ccccc2)cccc1N1CCN(CCCCCCNc2c3c(nc4ccccc24)CCCC3)CC1` as well?
67

====

Test system: SH-SY5Y cells
Experiment: Cytotoxicity, MTS cell viability assay, SH-SY5Y
Assay type: cell-based, human
Condition Info: 24 h, read-out: LC50 (cell viability, MTS)
Measurement Type: CC50 (nM)
Report the value in nM with no unit label.

CC50 for `O=S(=O)(c1ccccc1)n1ccc2c(N3CCN(CCCCCCNc4c5c(nc6ccccc46)CCCC5)CC3)cccc21` ?
1000
